Attribution: ChEMBL document CHEMBL1156828

Target: Mitogen-activated protein kinase 14 (Homo sapiens, UniProt Q16539)
Sequence (Q16539 whole entry): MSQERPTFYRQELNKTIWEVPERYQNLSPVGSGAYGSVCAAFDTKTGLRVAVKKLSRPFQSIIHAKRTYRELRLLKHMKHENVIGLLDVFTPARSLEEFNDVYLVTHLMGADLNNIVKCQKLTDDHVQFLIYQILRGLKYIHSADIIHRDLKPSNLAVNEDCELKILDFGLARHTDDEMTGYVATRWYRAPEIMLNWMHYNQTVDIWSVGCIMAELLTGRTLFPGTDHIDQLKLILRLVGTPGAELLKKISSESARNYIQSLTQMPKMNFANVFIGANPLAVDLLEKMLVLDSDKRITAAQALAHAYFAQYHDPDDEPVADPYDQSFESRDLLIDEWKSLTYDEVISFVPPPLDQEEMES
Assay: Inhibition of p38alpha-mediated ATF2 phosphorylation at 10 uM in presence of ATP
Response key: true means inhibition >= 40%; false means inhibition < 40%.

Task item: Assess whether reported inhibition for Fc1ccc(-c2nc3cccnc3nc2-c2ccncc2)cc1 sits at 40% or higher.
Reply: true

Task item: Assess whether reported inhibition for Fc1ccc(-c2nc3ccccc3nc2-c2ccnc(NCc3ccccc3)c2)cc1 sits at 40% or higher.
Reply: false

Task item: Assess whether reported inhibition for Fc1ccc(-c2nc3cc(Cl)c(Cl)cc3nc2-c2ccnc(NCc3ccccc3)c2)cc1 sits at 40% or higher.
Reply: false

Task item: Assess whether reported inhibition for COc1ccc2nc(-c3ccc(F)cc3)c(-c3ccncc3)nc2c1 sits at 40% or higher.
Reply: false
